# Tested on: naturally aged C57BL6J mice
# Format: in vivo, mouse
# Reported Conditions: after 7 days; 6 mm punch dorsal skin wounds; naturally aged mice; untreated aged 3.2 (±0.4)
Here, each record is paired with measured Wound size (mm) data.

Some molecules with known Wound size (mm) results, for comparison:
INSERT INTO assay_data (molecule, experimental_value) VALUES
  ('COC(=O)[C@H]1Cc2c([nH]c3ccccc23)[C@H](c2ccc(S(C)(=O)=O)cc2)N1C(=O)CCl [LX-5401]', '2.3 (±0.3) mm'),
  ('C[C@H]1[C@H](C)CC[C@]2(C(=O)O)CC[C@]3(C)C(=CC[C@@H]4[C@@]5(C)C[C@@H](O)[C@H](O)C(C)(C)[C@@H]5CC[C@]43C)[C@H]12 [LX-2002, Corosolic acid]', '2.7 (±0.4) mm');

Here's the next entry for you.
// query Quick one: Wound size (mm) of CC1(C)CC[C@]2(NC(=O)C(C)(F)F)CC[C@]3(C)[C@H](C(=O)C=C4[C@@]5(C)C=C(C#N)C(=O)C(C)(C)[C@@H]5CC[C@]43C)[C@@H]2C1 [LX-2101, Omaveloxolone] ?
// result 1.9 (±0.3) mm

---

# Tested on: HMGN1 secreted from senescent cells
# Run Description: HMGN1 secretion (ELISA) from doxorubicin-induced senescent cells, Example 17
# Type: cell-based, human
# Reported Conditions: senescent untreated = 100%; 30 μM; 90 μM for LX-5211, 5433, 6530, 9105, 9118, 9321, 9602; 2.4 mM for LX-9336
Measured Endpoint: HMGN1 (%)
The answer is to be given in %; state only the numeric part.

INSERT INTO assay_data (molecule, experimental_value) VALUES
  ('CN(CCOc1ccc(CC2SC(=O)NC2=O)cc1)c1ccccn1 (centres unmarked)', 227);

// query Quick one: HMGN1 of CCNCc1nc2c(O)c(Cl)cc(Cl)c2c(=O)n1C ?
// result 201

// query Quick one: HMGN1 of CCCCCCCCCCCCCCCCCCCC(=O)N[C@H]1CC[C@@]2(C)[C@@H](C1)C[C@@H](O)[C@@H]1[C@@H]2C[C@H](O)[C@]2(C)[C@@H]([C@H](C)CCC(=O)O)CC[C@@H]12 ?
// result 305

// query Quick one: HMGN1 of CCCCCC/C=C\CCCCCCCCCC(=O)N[C@H]1[C@H](OC[C@H]2O[C@H](OP(=O)([O-])[O-])[C@H](NC(=O)CC(=O)CCCCCCCCCCC)[C@@H](OCCCCCCCCCC)[C@@H]2O)O[C@H](COC)[C@@H](OP(=O)([O-])[O-])[C@@H]1OCC[C@@H](CCCCCCC)OC.[Na+].[Na+].[Na+].[Na+] [LX-9136, Eritoran tetrasodium] ?
// result 263

// query Quick one: HMGN1 of CN1CCc2c(c3ccccc3n2Cc2ccc(C(=O)NO)cc2)C1 ?
// result 194

---

# Test system: naturally aged mice
# Run Description: Anti-aging evaluation in naturally aged mice, Example 31, Table 55;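 also: Vehicle-dosed control mice received solution alone at matching volume, values compare test-compound-treated aged mice against that control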
# Type: in vivo, mouse
# Reported Conditions: heart, untreated = 1.0
Threshold 2 fold. Heart Sur2a mRNA below it: fulfilled. Heart Sur2a mRNA at it or above: not fulfilled.

INSERT INTO assay_data (molecule, label_class) VALUES
  ('C[C@@H](C(=O)Nc1ccc(Cl)cc1)[C@H]1CC[C@@H](c2ccnc3ccc(F)cc32)CC1 [LX-8805, Linrodostat]', 'not fulfilled'),
  ('CC(=O)N[C@@H](Cc1c[nH]c2ccccc12)C(=O)N[C@@H](CCC(=O)C=[N+]=[N-])C(=O)OC(C)C [LX-3201, Sirpiglenastat]', 'not fulfilled'),
  ('CN(C)c1cccc(-c2c3c(=O)n(-c4ccccc4Cl)[nH]c3cc(=O)n2C)c1 [LX-9744, Setanaxib]', 'not fulfilled'),
  ('NCC(=O)CCC(=O)O [LX-1103, 5-Aminolevulinic acid]', 'not fulfilled'),
  ('CC12CCN(CC1)C(CN(C1CC1)S(C)(=O)=O)C2=O (stereo not shown) [LX-5707]', 'not fulfilled'),
  ('CCc1nc(C(N)=O)c(Nc2ccc(N3CCC(N4CCN(C)CC4)CC3)c(OC)c2)nc1NC1CCOCC1 [LX-3303, Gilteritinib]', 'fulfilled');

Query molecule follows.
// query State whether 2 fold exceeds Heart Sur2a mRNA recorded for CC1(C)[C@H]2COc3ccc4ccccc4c3[C@H]2N=C2SC(c3ccccc3)=C(c3ccccc3)N21 [LX-5201] .
// result fulfilled
